For each entry below, report its IC50 value.
Target: AM2 receptor (1321N1 cells transfected with CALCRL+RAMP3) (Homo sapiens, UniProt O60896+Q16602)
Construct: host or cells: 1321N1 cells
Sequence (Q16602 23-461): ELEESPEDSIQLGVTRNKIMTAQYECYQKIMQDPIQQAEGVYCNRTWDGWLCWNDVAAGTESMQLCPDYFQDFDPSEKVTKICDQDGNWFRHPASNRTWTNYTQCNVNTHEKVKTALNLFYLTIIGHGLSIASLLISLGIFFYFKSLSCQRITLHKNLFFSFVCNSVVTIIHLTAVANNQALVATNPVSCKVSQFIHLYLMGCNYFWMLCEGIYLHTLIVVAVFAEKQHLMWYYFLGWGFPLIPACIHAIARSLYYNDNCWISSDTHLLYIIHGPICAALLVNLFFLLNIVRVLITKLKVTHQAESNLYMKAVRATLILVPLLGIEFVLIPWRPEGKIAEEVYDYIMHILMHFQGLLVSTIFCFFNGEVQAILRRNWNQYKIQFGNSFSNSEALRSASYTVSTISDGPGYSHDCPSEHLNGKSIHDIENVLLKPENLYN
Sequence (O60896 24-148): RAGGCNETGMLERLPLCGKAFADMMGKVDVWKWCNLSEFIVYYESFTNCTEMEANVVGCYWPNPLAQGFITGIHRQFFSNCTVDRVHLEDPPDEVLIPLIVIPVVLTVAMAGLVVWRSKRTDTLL
Assay: AM2 receptor inhibition, LANCE cAMP agonist-antagonist competition assay
Assay type: cell-based
Settings: inhibition of AM induced cAMP activation, read-out: AM2 D2 protocol: pIC50 (converted)
Phrase the answer as number then unit, nothing more needed.

Known results for molecules:
CNCc1ccccc1CN(CC(=O)Nc1ccc2c(c1)C[C@@]1(C2)C(=O)Nc2ncccc21)C(=O)C1(C)CCN(Cc2ccc(C(=O)O)cc2)CC1    0.0257 µM
CCC1(C(=O)N(CC(=O)Nc2ccc3c(c2)C[C@@]2(C3)C(=O)Nc3ncccc32)Cc2ccccc2CNC)CCN(C(=O)[C@H](N)C(C)C)CC1    0.0575 µM

Noted for CNCc1ccccc1CN(CC(=O)Nc1ccc2c(c1)C[C@@]1(C2)C(=O)Nc2ncccc21)C(=O)C1(C)CCN(c2ccncn2)CC1 : its IC50 reads 0.00214 µM
